Cited source: ChEMBL document CHEMBL3045052

- experiment: Partition coefficient, log P of compound at 1:2 1-octanol/water volume ratio by spectrophotometer
- Type: physicochemical
logP listing for selected compounds.
Form field (numeric): enter value without unit.

The following compounds have reported results that may help.
smiles.string	logP
N#Cc1nc2ccccn2c1[N+](=O)[O-]	0.641
CCOC(=O)c1nc2cccc(C)n2c1[N+](=O)[O-]	1.2
Cc1cccc2nc(C(N)=O)c([N+](=O)[O-])n12	0.69

Return reported logP. Input compound: "Cc1cccc2nc(C#N)c([N+](=O)[O-])n12"
1.12

Return reported logP. Input compound: "O=[N+]([O-])c1cnc2ccccn12"
0.96

Return reported logP. Input compound: "CCOC(=O)c1nc2ccccn2c1[N+](=O)[O-]"
1.04

Return reported logP. Input compound: "O=C(O)c1nc2ccccn2c1[N+](=O)[O-]"
-0.042

Return reported logP. Input compound: "Cc1cccc2nc(NC3CCCCC3)c([N+](=O)[O-])n12"
1.5

* * *

- experiment: Partition coefficient, log P of compound at 1:2 1-octanol/water volume ratio by spectrophotometer
- Assay type: physicochemical
parameter.measured: logP

The following compounds have reported results that may help.
smiles.string	logP
NC(=O)c1nc2ccccn2c1[N+](=O)[O-]	-0.569
O=[N+]([O-])c1c(NC2CCCCC2)nc2ccccn12	1.5

Proceeding to the next compound to report its logP.
Return reported logP. Input compound: "Cc1ncc([N+](=O)[O-])n1CCO"
0.11
